The values you see were collected from the supplement of paper PMC13380429.

- Test system: Vero E6
- procedure_text: relative viability EC50 (midpoint between 100% and the lowest measured viability); higher = less toxic
- test_settings: 72 h
metric_name: relative viability EC50

Some solved entries appear below for comparison.
{"compound": "COc1cc(CCc2cc(NC(=O)c3ccc(N4CC(C)NC(C)C4)cc3)n[nH]2)cc(OC)c1 (stereo not drawn) [AZD4547]", "metric_name": "relative viability EC50", "measured": "> 10 µM"}
{"compound": "CO[C@H](C(=O)[C@@H](O)[C@@H](C)O)[C@@H]1Cc2cc3cc(O[C@H]4C[C@@H](O[C@H]5C[C@@H](O)[C@H](O)[C@@H](C)O5)[C@@H](O)[C@@H](C)O4)c(C)c(O)c3c(O)c2C(=O)[C@H]1O[C@H]1C[C@@H](O[C@H]2C[C@@H](O[C@H]3C[C@](C)(O)[C@H](O)[C@@H](C)O3)[C@H](O)[C@@H](C)O2)[C@H](O)[C@@H](C)O1 [plicamycin]", "metric_name": "relative viability EC50", "measured": "1.46 µM"}

// next entry
Output relative viability EC50 of NC(=O)[C@@H]1CC[C@@H]2CN1C(=O)N2OS(=O)(=O)O [avibactam]
> 10 µM

----------
# cell viability per record follows
- System: HepG2
- procedure_text: cell viability relative to DMSO; higher = less toxic
- test_settings: 72 h; 1 nM
Respond numerically; units are % and should not be typed.

{"molecule": "Cc1ccccc1NC(=N)Nc1ccccc1C", "value_unit": "%", "measured": 100}
{"molecule": "C1=Cc2cccc(OCC3CNCCO3)c2C1 (centres undefined)", "value_unit": "%", "measured": 105}
{"molecule": "CC[C@@H]([C@H](C)O)n1ncn(-c2ccc(N3CCN(c4ccc(OC[C@@H]5CO[C@@](Cn6cncn6)(c6ccc(F)cc6F)C5)cc4)CC3)cc2)c1=O", "value_unit": "%", "measured": 97.8}

// next entry
Identify measured cell viability obtained with HepG2 for COCC[n+]1c2c(n(Cc3cnccn3)c1C)C(=O)c1ccccc1C2=O .
103

----------
# cell viability per record follows
- Tested on: HepG2
- procedure_text: cell viability relative to DMSO; higher = less toxic
- test_settings: 72 h; 10000 nM
Respond numerically; units are % and should not be typed.

Some solved entries appear below for comparison.
{"compound": "C=C1C(=O)O[C@@H]2[C@H]3O[C@]3(C)CC/C=C(\\C)CC[C@@H]12 [parthenolide-(alternate-stereo)]", "value_unit": "%", "cell viability": 22.5}
{"compound": "CC(C)(C)CCN1C[C@@H]2[C@@H](CNC(=O)c3cc(Cl)cc(Cl)c3)[C@@H]2C1 [ML218]", "value_unit": "%", "cell viability": 92.7}
{"compound": "Cc1cccc(C)c1NC(=O)CN1CCCCCC1 [pincainide]", "value_unit": "%", "cell viability": 106}
{"compound": "CCCCCCCCc1ccc(CCC(N)(CO)CO)cc1 [fingolimod]", "value_unit": "%", "cell viability": 0.4}
{"compound": "CC[C@@H]([C@H](C)O)n1ncn(-c2ccc(N3CCN(c4ccc(OC[C@@H]5CO[C@@](Cn6cncn6)(c6ccc(F)cc6F)C5)cc4)CC3)cc2)c1=O [posaconazole]", "value_unit": "%", "cell viability": 27.5}

Output cell viability of C=CCN1CCN(c2nc3ccccc3nc2C#N)CC1 [3-AQC]
94.2

Output cell viability of CC(C)(O)CS(=O)(=O)Nc1ccc2c(c1)CCN(C(=O)COc1cccnc1)C2 [Nampt-IN-1]
16.2

Output cell viability of NC(=O)[C@@H]1CC[C@@H]2CN1C(=O)N2OS(=O)(=O)O [avibactam]
97.8

Output cell viability of CCCCCC(C)N (stereo unspecified) [tuaminoheptane]
90.8

Output cell viability of O=C(/C=C/c1ccc(O)cc1)c1ccc(O)cc1O [isoliquiritigenin]
96.5

Output cell viability of Cc1cncc(CN2CCC(=C3c4ccc(Cl)cc4CCc4cccnc43)CC2)c1 [rupatadine]
71.9

Output cell viability of CCN(C(=O)c1c(O)c2c(Cl)cccc2n(C)c1=O)c1ccccc1 [laquinimod]
92.8

----------
- Tested on: Calu-3
- procedure_text: relative viability EC50 (midpoint between 100% and the lowest measured viability); higher = less toxic
- test_settings: 72 h
metric_name: relative viability EC50

Some solved entries appear below for comparison.
{"compound": "CCCC1(CCC)CCC2(CCN(CCCN(CC)CC)C2)CC1", "system_name": "Calu-3", "measured": "2.1 µM"}
{"compound": "CC(C)NCC(O)c1ccc([N+](=O)[O-])cc1 (centres undefined)", "system_name": "Calu-3", "measured": "> 10 µM"}
{"compound": "CC(C)(C)NC[C@H](O)COc1cccc2c1CCCC2=O", "system_name": "Calu-3", "measured": "> 10 µM"}
{"compound": "O=C(NOCCO)c1ccc2cncn2c1Nc1ccc(I)cc1F", "system_name": "Calu-3", "measured": "0.034 µM"}
{"compound": "COc1cc2nc(C3CC3)nc(N3CCN(c4ccccc4OC)CC3)c2cc1OC", "system_name": "Calu-3", "measured": "> 10 µM"}
{"compound": "CC(=O)N[C@H]1[C@H]([C@H](O)[C@H](O)CO)OC(C(=O)O)=C[C@@H]1NC(=N)N", "system_name": "Calu-3", "measured": "> 10 µM"}
{"compound": "CC(/C=C1\\SC(=S)N(CC(=O)O)C1=O)=C\\c1ccccc1", "system_name": "Calu-3", "measured": "> 10 µM"}
{"compound": "CC1C=CC=CCCC=CC=CC=CC=CC(OC2OC(C)C(O)C(N)C2O)CC2OC(O)(CC(O)C(O)CCC(O)CC(O)CC(O)CC(=O)OC(C)C(C)C1O)CC(O)C2C(=O)O (centres undefined)", "system_name": "Calu-3", "measured": "> 10 µM"}

// next entry
Output relative viability EC50 of c1ccc([C@@H]2C[C@H]2NC2CCNCC2)cc1
> 10 µM

----------
# cell viability per record follows
- Test system: U2OS
- procedure_text: cell viability relative to DMSO; higher = less toxic
- test_settings: 72 h; 10000 nM
Respond numerically; units are % and should not be typed.

Some solved entries appear below for comparison.
{"compound": "COc1ccccc1C1(O)CCN(CCCn2c3ccccc3c3ccccc32)CC1 [NNC-05-2090]", "value_unit": "%", "cell viability": 82.9}
{"compound": "Oc1cc2c(cc1O)C(c1ccccc1)CNCC2 (centres undefined)", "value_unit": "%", "cell viability": 99}
{"compound": "CC[C@@H]([C@H](C)O)n1ncn(-c2ccc(N3CCN(c4ccc(OC[C@@H]5CO[C@@](Cn6cncn6)(c6ccc(F)cc6F)C5)cc4)CC3)cc2)c1=O [posaconazole]", "value_unit": "%", "cell viability": 93.8}

// next entry
Output cell viability of COc1cc(NS(=O)(=O)c2ccc(N)cc2)ncn1 [sulfamonomethoxine]
100

----------
- Test system: HepG2
- procedure_text: cell viability relative to DMSO; higher = less toxic
- test_settings: 72 h; 100 nM
# cell viability per record follows
Respond numerically; units are % and should not be typed.

Output cell viability of C=C(C)[C@@H]1CC[C@]2(CO)CC[C@]3(C)[C@H](CC[C@@H]4[C@@]5(C)CC[C@H](O)C(C)(C)[C@@H]5CC[C@]43C)[C@@H]12 [NSC-4644]
96.1

Output cell viability of CCS(=O)(=O)N1CC(CC#N)(n2cc(-c3ncnc4[nH]ccc34)cn2)C1 [baricitinib]
91.1

Output cell viability of CCS(=O)(=O)CCn1c([N+](=O)[O-])cnc1C [tinidazole]
85.5

Output cell viability of CCOC(=O)C1=C(C)NC(C)=C(C(=O)OC)[C@@H]1c1cccc([N+](=O)[O-])c1 (racemic) [nitrendipine]
89

Output cell viability of C[C@@H]1CC(=O)NN=C1c1ccc(NN=C(C#N)C#N)cc1 [levosimendan]
98.5

----------
- Tested on: A549-ACE2 infected with SARS-CoV-2
- procedure_text: cell count relative to DMSO; higher = less toxic
- test_settings: 0.3 µM; 24 h
metric_name: cell count
Form entry: enter the amount, then its unit.

Some solved entries appear below for comparison.
{"molecule": "CC(C)(C)Cn1c(N)nc2ccc(-c3[nH]c(C(C)(C)C)nc3-c3ccc(F)cc3)nc21", "system_name": "A549-ACE2 infected with SARS-CoV-2", "measured": "87%"}
{"molecule": "Cc1[nH]c(/C=C2\\C(=O)Nc3ccc(S(=O)(=O)Cc4c(Cl)cccc4Cl)cc32)c(C)c1C(=O)N1CCC[C@@H]1CN1CCCC1", "system_name": "A549-ACE2 infected with SARS-CoV-2", "measured": "109%"}
{"molecule": "O=C(c1ccc(/C=C/c2n[nH]c3ccccc23)cc1)N1CCNCC1", "system_name": "A549-ACE2 infected with SARS-CoV-2", "measured": "105%"}

// next entry
Output cell count of C=C1C(=O)O[C@@H]2[C@H]3O[C@]3(C)CC/C=C(\C)CC[C@@H]12 [parthenolide-(alternate-stereo)]
102%
